- applied conditions: in n-propyl acetate, 318.15 K
property: solubility (mole fraction)
Lab note: record just the number, no unit beside it.

Exercise: Value lookup for solubility (mole fraction); key = O=C(O)COc1ccc(Cl)cc1
Key: 0.0604

====

- applied conditions: in n-propyl acetate, 323.15 K
property: solubility (mole fraction)
Answer with a bare number; do not write a unit.

Exercise: Quick one: solubility (mole fraction) for O=C(O)COc1ccc(Cl)cc1 ?
Key: 0.0698

====

- applied conditions: in n-propyl acetate, 303.15 K
property: solubility (mole fraction)
// keep it numeric: no unit symbol after the value

Exercise: Sample O=C(O)COc1ccc(Cl)cc1 — what was its solubility (mole fraction)?
Key: 0.0398

====

- applied conditions: in sec-butanol, 298.15 K
property: solubility (mole fraction)
Number only, please.

Exercise: // query solubility (mole fraction) value for entry O=C(O)COc1ccc(Cl)cc1
Key: 0.0413

====

- applied conditions: in ethyl formate, 323.15 K
property: solubility (mole fraction)
Respond with the number and no other words.

Exercise: Fill in: solubility (mole fraction) of O=C(O)COc1ccc(Cl)cc1 is ___
Key: 0.0487

====

- applied conditions: in acetonitrile, 293.15 K
property: solubility (mole fraction)
// return a plain number; no unit text

Exercise: // returns reported solubility (mole fraction) for input O=C(O)COc1ccc(Cl)cc1
Key: 0.0114

====

- applied conditions: in n-propanol, 293.15 K
property: solubility (mole fraction)
Field format: numeric only.

Exercise: Request the reported solubility (mole fraction) associated with O=C(O)COc1ccc(Cl)cc1
Key: 0.0348

====

- applied conditions: in n-butanol, 293.15 K
property: solubility (mole fraction)
Output: the number by itself.

Exercise: Given the compound O=C(O)COc1ccc(Cl)cc1 , what is its reported solubility (mole fraction)?
Key: 0.0343

====

- applied conditions: in acetonitrile, 288.15 K
property: solubility (mole fraction)
Lab note: record just the number, no unit beside it.

Exercise: Form field: reported solubility (mole fraction) of O=C(O)COc1ccc(Cl)cc1
Key: 0.00938

====

- applied conditions: in ethanol, 313.15 K
property: solubility (mole fraction)
Please state the value as a number alone, without comment.

Exercise: Need solubility (mole fraction), item O=C(O)COc1ccc(Cl)cc1
Key: 0.0796

====

- applied conditions: in ethanol, 303.15 K
property: solubility (mole fraction)

Exercise: Fill in: solubility (mole fraction) of O=C(O)COc1ccc(Cl)cc1 is ___
Key: 0.0545

====

- applied conditions: in isobutanol, 283.15 K
property: solubility (mole fraction)
# output: bare number, no unit

Exercise: Returns the measured solubility (mole fraction) for the input compound. Input: O=C(O)COc1ccc(Cl)cc1
Key: 0.0146

====

- applied conditions: in ethyl acetate, 313.15 K
property: solubility (mole fraction)
Just the number.

Exercise: I would be grateful if you could share the reported solubility (mole fraction) for O=C(O)COc1ccc(Cl)cc1 .
Key: 0.0637

====

- applied conditions: in methyl acetate, 293.15 K
property: solubility (mole fraction)
Give the figure by itself; no unit, no explanation.

Exercise: For the compound O=C(O)COc1ccc(Cl)cc1 , what solubility (mole fraction) is on record?
Key: 0.0379

====

- applied conditions: in ethyl acetate, 323.15 K
property: solubility (mole fraction)
Provide a numeric answer; units are not to be included.

Exercise: Sample O=C(O)COc1ccc(Cl)cc1 — what was its solubility (mole fraction)?
Key: 0.0827

====

- applied conditions: in n-propanol, 323.15 K
property: solubility (mole fraction)
API doc: respond with a numeric literal and nothing else, no unit.

Exercise: Suppose we examine the compound O=C(O)COc1ccc(Cl)cc1 ; what solubility (mole fraction) value has been reported?
Key: 0.11

====

- applied conditions: in ethyl acetate, 298.15 K
property: solubility (mole fraction)

Exercise: Please give the measured solubility (mole fraction) for this compound: O=C(O)COc1ccc(Cl)cc1
Key: 0.0413

====

- applied conditions: in n-propyl acetate, 313.15 K
property: solubility (mole fraction)
Form rule: numeric answer, no unit written next to it.

Exercise: Entry O=C(O)COc1ccc(Cl)cc1 : reported solubility (mole fraction) = ?
Key: 0.0524

====

- applied conditions: in n-propanol, 303.15 K
property: solubility (mole fraction)
Lab note: jot down the number only; don't add units.

Exercise: Quick one: solubility (mole fraction) of O=C(O)COc1ccc(Cl)cc1 ?
Key: 0.0506

====

- applied conditions: in isobutanol, 318.15 K
property: solubility (mole fraction)
Answer as a number with no unit attached.

Exercise: For the compound O=C(O)COc1ccc(Cl)cc1 , what solubility (mole fraction) is on record?
Key: 0.0688

====

- applied conditions: in isopropanol, 288.15 K
property: solubility (mole fraction)
Answer field: number only, no words.

Exercise: // lookup solubility (mole fraction) for O=C(O)COc1ccc(Cl)cc1
Key: 0.0267

====

- applied conditions: in ethanol, 283.15 K
property: solubility (mole fraction)
# answer = number (no unit)

Exercise: // returns reported solubility (mole fraction) for input O=C(O)COc1ccc(Cl)cc1
Key: 0.0308

====

- applied conditions: in acetonitrile, 313.15 K
property: solubility (mole fraction)
I only need the number, thanks.

Exercise: Return reported solubility (mole fraction); argument: O=C(O)COc1ccc(Cl)cc1
Key: 0.0241

====

- applied conditions: in n-butyl acetate, 288.15 K
property: solubility (mole fraction)
Give a plain numeric answer without units written out.

Exercise: Sample O=C(O)COc1ccc(Cl)cc1 — what was its solubility (mole fraction)?
Key: 0.0246

====

- applied conditions: in ethyl formate, 318.15 K
property: solubility (mole fraction)

Exercise: What does the data say about its solubility (mole fraction)? Entry: O=C(O)COc1ccc(Cl)cc1
Key: 0.0423

====

- applied conditions: in 1,4-dioxane, 313.15 K
property: solubility (mole fraction)
The response must contain the number and no unit.

Exercise: Any idea what its solubility (mole fraction) is? The molecule is O=C(O)COc1ccc(Cl)cc1
Key: 0.176

====

- applied conditions: in sec-butanol, 283.15 K
property: solubility (mole fraction)
I only need the number, thanks.

Exercise: Which solubility (mole fraction) is reported for this compound? O=C(O)COc1ccc(Cl)cc1
Key: 0.0224

====

- applied conditions: in n-butanol, 313.15 K
property: solubility (mole fraction)
Write the value as a bare number.

Exercise: Return reported solubility (mole fraction); argument: O=C(O)COc1ccc(Cl)cc1
Key: 0.0721

====

- applied conditions: in sec-butanol, 318.15 K
property: solubility (mole fraction)
Write the number on its own, no unit after it.

Exercise: Quick check: solubility (mole fraction) of O=C(O)COc1ccc(Cl)cc1 ?
Key: 0.0888

====

- applied conditions: in n-butyl acetate, 283.15 K
property: solubility (mole fraction)
Output spec: single numeric token, no unit.

Exercise: What value of solubility (mole fraction) has been reported for the following molecule? O=C(O)COc1ccc(Cl)cc1
Key: 0.0218
